Origin of values: the supplement of paper PMC11451515

System: SEM cells
assay.info: cell viability relative to DMSO control; higher = less cytotoxic
test.context: RPMI 5 mM glucose + 10% FBS; 48 h; 0.00702 µM
Property: cell viability; scope: individual compounds
Use % as the unit, but write only the number.

Solved cases below.
Test system SEM cells; read-out cell viability; what value for COc1ccc(CC2NCCc3cc(OC)c(OC)cc32)cc1OC (configuration not stated) ?
82.2

Next up: C[C@]\12CC[C@H](O)CC1=C/CC3C2CC[C@@]\4(C)C3C\C=C4[N]5C=NC6=C5C=CC=C6 (some centres not stated)
101

Then this compound: CC1=NN(c2ccc(C)c(C)c2)C(=O)/C1=N/Nc1cccc(-c2cccc(C(=O)O)c2)c1O
128

Then what about the compound COc1cnc(N[S+](=O)([O-])c2ccc(N)cc2)nc1 ?
99.7

Check CC(C)n1c(/C=C/[C@H](O)C[C@H](O)CC(=O)O)c(-c2ccc(F)cc2)c2ccccc21 too.
126

// next record CNC(=O)c1ccc(-c2cnc3ncc(Cc4ccc5ncccc5c4)n3n2)cc1F
100

And the next one, COC[C@H]1OC(=O)C2=COC3=C2[C@@]1(C)\C4=C(C5CCC(=O)[C@@]5(C)C[C@H]4OC(C)=O)/C3=O (some centres not stated) ?
101

Now this one: O=C1c2c(O)cc(O)cc2O[C@H](c2ccc(O)c(O)c2)[C@H]1O
136

Could you do the same for CN[S+](=O)([O-])Cc1ccc2[nH]cc(CCN(C)C)c2c1 , please?
104

Similarly, COC(=O)Nc1nc2cc(C(=O)c3cccs3)ccc2[nH]1 ?
88

New cases:
Param readout = cell viability; param system = SEM cells; param query = OC1=CC=C(C=C1)\C2=C\OC3=C(C=CC(=C3)O)C2=O ; response: value
109

Continue with COc1cc2c(cc1OC)C1CC(=O)C(CC(C)C)CN1CC2 (configuration not stated)
110

For N=C(CCSCc1csc(N=C(N)N)n1)N[S+](N)(=O)[O-] then?
103

---

Test system: NOMO1
assay.info: cell viability relative to DMSO control; higher = less cytotoxic
test.context: RPMI 5 mM glucose + 10% FBS; 48 h; 0.569 µM
assay.readout: cell viability (%)
Hi! Could you send only the number? It should be in %, unit omitted.

Fill blank: measured cell viability of the molecule Oc1ccc2c3c1O[C@H]1c4[nH]c5c(c4C[C@@]4(O)[C@@H](C2)N(CC2CC2)CC[C@]314)C[C@@]1(O)[C@H]2Cc3ccc(O)c4c3[C@@]1(CCN2CC1CC1)[C@H]5O4 is ____.
125

Another molecule to look at: CCc1cc(Nc2nccc(-c3c(-c4ccc(OC)c(C(=O)Nc5c(F)cccc5F)c4)nc4ccccn34)n2)c(OC)cc1N1CCC(N2CCN([S+](C)(=O)[O-])CC2)CC1
114

Same lookup for Cc1cn2c(-c3cn[nH]c3)cnc2c(Nc2ccc(C(=O)N3CCNCC3)cc2F)n1 , please.
89.2

CC(C)[C@@H](N(CCCN)C(=O)C1=CC=C(C)C=C1)C/2=N/C3=CC(=CC=C3C(=O)N2CC4=CC=CC=C4)Cl ?
15.3

Try Cc1c(CCOc2ccc(C(=O)O)cc2)c2cc(Cl)ccc2n1C(c1ccccc1)c1ccccc1 next.
94.8

Record: Cc1ccccc1C(C(=O)NC1CCCCC1)N(C(=O)Cn1ccnc1C)c1cccc(F)c1 (stereo unspecified)
106

Check CC1(C)O[C@@H]2C[C@H]3[C@@H]4CCC5=CC(=O)C=C[C@]5(C)[C@@]4(F)[C@@H](O)C[C@]3(C)[C@]2(C(=O)CO)O1 too.
117

Now give it for Cc1c(CN2CCN(C(=O)[C@H](C)O)CC2)sc2c(N3CCOCC3)nc(-c3cnc(N)nc3)nc12 too.
69.1

Same question, c1cncc(CN2CCC(n3ncc4c(N5CCOCC5)nc(-c5ccc6[nH]ccc6c5)nc43)CC2)c1 this time
83.6

Quick one: OC(=O)C1=CC=C(NC2=NC3=C(C\N=C(/C4=CC(=CC=C34)Cl)C5=C(F)C=CC=C5F)C=N2)C=C1
82.3

Continuing:
Look up cell viability for this molecule: CC/C(=C(/c1ccc(O)cc1)c1ccc(OCCNC)cc1)c1ccccc1
117

Then this molecule: O=C([O-])C(O)Cc1ccc(O)c(O)c1 (stereo unspecified)
84

Follow-up entry: COc1ccc(-c2cc3nccn3c(Nc3ncccc3C(N)=O)n2)cc1OC
95

Query O=C(NOCC(O)CO)c1cc(Br)c(F)c(F)c1Nc1ccc(I)cc1F (stereo unspecified) next
28.1

Consider next the molecule CCc1cncnc1N1CCN(Cc2nc3cc(C(F)(F)F)ccc3[nH]2)CC1 in the same way.
90.1

And for COc1cnc(N[S+](=O)([O-])c2ccc(N)cc2)nc1 ?
138
